Tested on: NCI-H2085
Test: relative viability (nuclei count vs DMSO), 5 days (fraction); higher = more cells survive
Settings: first compound 0.006325 µM

{"molecule": "CC(=O)O[C@@]12CO[C@@H]1C[C@H](O)[C@@]1(C)C(=O)[C@H](O)C3=C(C)[C@@H](OC(=O)[C@H](O)[C@@H](NC(=O)OC(C)(C)C)c4ccccc4)C[C@@](O)([C@@H](OC(=O)c4ccccc4)[C@H]21)C3(C)C [Docetaxel] + O=C(CCCCCCC(=O)Nc1ccccc1)NO [Vorinostat] (partner 1 µM)", "relative viability": 0.355}
{"molecule": "CC(=O)O[C@@]12CO[C@@H]1C[C@H](O)[C@@]1(C)C(=O)[C@H](O)C3=C(C)[C@@H](OC(=O)[C@H](O)[C@@H](NC(=O)OC(C)(C)C)c4ccccc4)C[C@@](O)([C@@H](OC(=O)c4ccccc4)[C@H]21)C3(C)C [Docetaxel] + NC(=O)Nc1cc(-c2cccc(F)c2)sc1C(=O)N[C@H]1CCCNC1 [AZD7762] (partner 0.2 µM)", "relative viability": 0.338}
{"molecule": "CC(=O)O[C@@]12CO[C@@H]1C[C@H](O)[C@@]1(C)C(=O)[C@H](O)C3=C(C)[C@@H](OC(=O)[C@H](O)[C@@H](NC(=O)OC(C)(C)C)c4ccccc4)C[C@@](O)([C@@H](OC(=O)c4ccccc4)[C@H]21)C3(C)C [Docetaxel] + Cc1nc(Nc2ncc(C(=O)Nc3c(C)cccc3Cl)s2)cc(N2CCN(CCO)CC2)n1 [Dasatinib] (partner 0.075 µM)", "relative viability": 0.24}
{"molecule": "CC(=O)O[C@@]12CO[C@@H]1C[C@H](O)[C@@]1(C)C(=O)[C@H](O)C3=C(C)[C@@H](OC(=O)[C@H](O)[C@@H](NC(=O)OC(C)(C)C)c4ccccc4)C[C@@](O)([C@@H](OC(=O)c4ccccc4)[C@H]21)C3(C)C [Docetaxel] + CCNC(=O)c1noc(-c2cc(C(C)C)c(O)cc2O)c1-c1ccc(CN2CCOCC2)cc1 [Luminespib] (partner 0.01 µM)", "relative viability": 0.322}
{"molecule": "CC(=O)O[C@@]12CO[C@@H]1C[C@H](O)[C@@]1(C)C(=O)[C@H](O)C3=C(C)[C@@H](OC(=O)[C@H](O)[C@@H](NC(=O)OC(C)(C)C)c4ccccc4)C[C@@](O)([C@@H](OC(=O)c4ccccc4)[C@H]21)C3(C)C [Docetaxel] + COc1cccc2cc(-c3nc([C@H]4CC[C@H](C(=O)O)CC4)n4ncnc(N)c34)[nH]c12 [OSI-027] (partner 0.5 µM)", "relative viability": 0.316}
{"molecule": "CC(=O)O[C@@]12CO[C@@H]1C[C@H](O)[C@@]1(C)C(=O)[C@H](O)C3=C(C)[C@@H](OC(=O)[C@H](O)[C@@H](NC(=O)OC(C)(C)C)c4ccccc4)C[C@@](O)([C@@H](OC(=O)c4ccccc4)[C@H]21)C3(C)C [Docetaxel] + C[C@@H](Oc1cc(-c2cnn(C3CCNCC3)c2)cnc1N)c1c(Cl)ccc(F)c1Cl [Crizotinib] (partner 1 µM)", "relative viability": 0.415}

---

System: LXF-289
Assay: relative viability (nuclei count vs DMSO), 5 days (fraction); higher = more cells survive
Conditions: first compound 0.1581 µM
Binary label based on relative viability with cut-off 0.3: below gives YES, not below gives NO.

{"molecule": "Nc1ccn([C@@H]2O[C@H](CO)[C@@H](O)[C@@H]2O)c(=O)n1 [Cytarabine] + CS(=O)(=O)CCNCc1ccc(-c2ccc3ncnc(Nc4ccc(OCc5cccc(F)c5)c(Cl)c4)c3c2)o1 [Lapatinib] (partner 2 µM)", "label": "NO"}
{"molecule": "Nc1ccn([C@@H]2O[C@H](CO)[C@@H](O)[C@@H]2O)c(=O)n1 [Cytarabine] + Nc1ncn([C@H]2C[C@H](O)[C@@H](CO)O2)c(=O)n1 [Decitabine] (partner 2 µM)", "label": "YES"}
{"molecule": "Nc1ccn([C@@H]2O[C@H](CO)[C@@H](O)[C@@H]2O)c(=O)n1 [Cytarabine] + N=C(N)NC(=N)NCCc1ccccc1 [Phenformin] (partner 250 µM)", "label": "YES"}
{"molecule": "COc1cc2nccc(Oc3ccc(NC(=O)Nc4cc(C)on4)c(Cl)c3)c2cc1OC [Tivozanib] + Cc1cc(Nc2cc(N3CCN(C)CC3)nc(Sc3ccc(NC(=O)C4CC4)cc3)n2)n[nH]1 [Tozasertib] (partner 0.1 µM)", "label": "YES"}
